Entries and their pIC50 values follow.
# target: Tet50 (Unknown prokaryotic organism)
# Construct: made in house; host or cells: E. coli BL21-Star (DE3)
# experimentalDetails: In vitro inhibition of TC oxidation by Tet50 (A400), variable preincubation, dark or blue light
# Assay type: biochemical
# measurementSetup: role: inhibitor; dark; 30 min preincubation of inhibitor with enzyme prior to initiating assay; 100 μM TC, 500 μM NADPH; read-out: Apparent IC50 values, Tet50
pIC50: −log10 of the molar value.
assayMetric: pIC50

[
  {
    "molecule": "C#CCN(C)Cc1ccc2c(C)c3c(c(O)c2c1O)C(=O)[C@]1(O)C(=O)C(C(N)=O)=C(O)[C@@H](N(C)C)[C@@H]1C3 [Compound 105]",
    "target": "Tet50 (Unknown prokaryotic organism)",
    "testValue": 3.33
  },
  {
    "molecule": "C#CCNCc1ccc2c(C)c3c(c(O)c2c1O)C(=O)[C@]1(O)C(=O)C(C(N)=O)=C(O)[C@@H](N(C)C)[C@@H]1C3.Cl [Compound 104, Hydrochloride]",
    "target": "Tet50 (Unknown prokaryotic organism)",
    "testValue": 3.22
  }
]

---

# target: Tet50 (Unknown prokaryotic organism, UniProt A0A059WYP6)
# Construct: made in house; host or cells: E. coli BL21-Star (DE3)
# Sequence (A0A059WYP6 whole entry): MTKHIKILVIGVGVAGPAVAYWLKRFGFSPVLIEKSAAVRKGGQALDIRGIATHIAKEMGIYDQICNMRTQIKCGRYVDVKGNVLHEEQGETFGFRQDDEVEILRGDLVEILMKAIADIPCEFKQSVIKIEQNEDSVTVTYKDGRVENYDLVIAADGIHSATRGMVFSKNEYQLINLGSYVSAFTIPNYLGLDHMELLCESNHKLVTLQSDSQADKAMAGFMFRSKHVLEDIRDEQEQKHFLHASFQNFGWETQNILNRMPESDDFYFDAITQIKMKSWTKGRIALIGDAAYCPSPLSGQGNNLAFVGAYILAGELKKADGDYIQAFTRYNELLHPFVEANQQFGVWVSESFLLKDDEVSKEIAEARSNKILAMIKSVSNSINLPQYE
# experimentalDetails: In vitro inhibition of TC oxidation by Tet50 (A400), variable preincubation, dark or blue light
# Type: biochemical
# measurementSetup: role: inhibitor; blue light; start of course; 100 μM TC, 500 μM NADPH; read-out: Apparent IC50 value at start of blue light course

[
  {
    "compound": "Cc1c2c(c(O)c3c(O)cccc13)C(=O)[C@]1(O)C(=O)C(C(N)=O)=C(O)[C@@H](N(C)C)[C@@H]1C2 [Compound 106, Anhydrotetracycline, reference compound]",
    "measurementUnit": "µM",
    "IC50": 500
  }
]

Reference source: patent US20260345640A1
